- Tested on: LOX IMVI melanoma
- assaySummary: NCI-60 one-dose screen, 48 h (100 = growth as untreated, 0 = no growth, -100 = all killed)
- experimentalParameters: 10 µM
This is part of a sample that, as a whole, favours compounds with a hit. Of some 83,000 tested, about 20% had one in any assay.
quantityName: growth (%)
Give the quantity in %, number only.

I am curious: what growth value has been reported for `Cn1c([N+](=O)[O-])cnc1/C=C1\Oc2ccc(Br)cc2C1=O` ?
-52.3

Report growth for `Cc1cc(Nc2cccc(F)c2)nc(NCc2ccccc2)n1` please.
18.2

Query: growth; subject: `COc1cc2ccnc(C=O)c2cc1OC`
41.8

What measured growth goes with `CC(=O)c1ccc(NCn2nc(-c3ccc(Cl)cc3)oc2=S)cc1` ?
90.3

Using the record for `CC(C)c1[nH]nc2c(NCc3ccc(-c4ccccn4)cc3)nc(SCCN(C)C)nc12` , report its growth.
-7.56

Fill in: growth of `[O-]c1c[n+](-c2ccc(Cl)cc2)no1` is ___
98

Need growth, item `COc1cc(-c2cc(/C=C/C(C)=O)[nH]n2)cc(OC)c1OC`
62

Which growth is reported for this compound? `O=C(Nc1cccc(Cl)c1)OCC(COC(=O)Nc1cccc(Cl)c1)(COC(=O)Nc1cccc(Cl)c1)[N+](=O)[O-]`
15.6

Look at this compound and give its reported growth. `COc1cc2nc(Sc3sc(N)nc3C)n(-c3ccc(Oc4ccccc4)cc3)c(=O)c2cc1OC`
78.3

Record request: growth value, item `O=C(CCl)N1c2ccccc2Sc2ccc3ccccc3c21`
-78.3
